System: HOP-62 NSCLC
Assay: NCI tumour cell line growth inhibition, 48 h
Please respond with reported TGI for every item in the list.

Short answer on HOP-62 NSCLC for `Cc1cccc2nc(-c3ccccc3)cc(=O)n12` , TGI: > 100 µM

Short answer on HOP-62 NSCLC for Cc1c(N=Nc2ccccc2)c(-c2ccccc2)n(C2OC(CO)C(O)C(O)C2O)c(=S)c1C#N (stereo not given) , TGI: 23.2 µM

Short answer on HOP-62 NSCLC for `CCc1[nH]c(=O)nc(N)c1-c1ccc(N2CCCCC2)c([N+](=O)[O-])c1` , TGI: > 100 µM

Short answer on HOP-62 NSCLC for `CCN(CCCl)c1cc(CN(C)C)cc(NC(=O)c2ccc(C(=O)Nc3cc(CN(C)C)cc(N(CC)CCCl)c3)cc2)c1` , TGI: 0.966 µM

Short answer on HOP-62 NSCLC for `CCOC(=O)Sc1ncnc2nc[nH]c12` , TGI: > 100 µM

Short answer on HOP-62 NSCLC for `N#Cc1ccc(NC(=NCC(=O)O)Nc2cccc3ccccc23)cc1` , TGI: > 10 µM

Short answer on HOP-62 NSCLC for `COc1ccc(OC)c(/C=C/C(=O)N/N=C/c2ccc(Cl)cc2)c1` , TGI: > 70.9 µM

Short answer on HOP-62 NSCLC for `CC1=C2C(=O)O[C@@H](c3ccoc3)[C@]2(C)CCC1` , TGI: > 100 µM

Short answer on HOP-62 NSCLC for COc1ccc(C(C)c2cc3c(cc2OC)OCO3)cc1 (stereo not given) , TGI: > 46.2 µM

Short answer on HOP-62 NSCLC for `NCCCC[C@@H]1NC(=O)[C@H]2CCCN2C(=O)[C@H](Cc2ccccc2)NC(=O)[C@H](Cc2ccccc2)CNC1=O` , TGI: > 100 µM

Short answer on HOP-62 NSCLC for Cc1[nH]c(=O)[nH]c(=O)c1/C=C/C(=O)NC(CO)CC(C)C (stereo not given) , TGI: > 375 µM

Short answer on HOP-62 NSCLC for `C1C2CC3CC1CC(c1nn4c(C56CC7CC(CC(C7)C5)C6)nnc4s1)(C2)C3` , TGI: > 100 µM

Short answer on HOP-62 NSCLC for CC(=O)C(C(=O)c1ccc(C)cc1)[C@@H]1OC(C)(C)O[C@@H]1[C@H]1COC(C)(C)O1 (stereo not given in full) , TGI: > 58.4 µM

Short answer on HOP-62 NSCLC for `COc1cc(NC(=O)c2cc(O)c(CC=C(C)C)c(O)c2)cc2c1O[C@]1(C)CC[C@@H](O)C(C)(C)[C@H]1C2` , TGI: 30.9 µM

Short answer on HOP-62 NSCLC for CC(=O)OC1CC(O)C23COC(O)C1(C)C2CC(O)C1(C)C3C(=O)C(O)C2(C)C(c3ccoc3)CC3OC321 (stereo not given) , TGI: > 100 µM

Short answer on HOP-62 NSCLC for CCC[CH2][Sn]1([CH2]CCC)[O]C(=O)C(C(C)C)N=Cc2ccccc2[O]1 (stereo not given) , TGI: > 100 µM

Short answer on HOP-62 NSCLC for `COc1cccc(Nc2nc(C)c([N+](=O)[O-])c(Nc3cccc(OC)c3)n2)c1` , TGI: 46.2 µM

Short answer on HOP-62 NSCLC for CN1CCCC2C(c3ccccc3)C(C3=NCCCC3)C(c3ccccc3)CC21 (stereo not given) , TGI: > 100 µM

Short answer on HOP-62 NSCLC for Cc1cn(C2OC(CO[Si](C)(C)C(C)(C)C)/C(=C\C#N)C2O[Si](C)(C)C(C)(C)C)c(=O)[nH]c1=O (stereo not given) , TGI: > 100 µM

Short answer on HOP-62 NSCLC for NC(=O)NC1NC(=O)NC1=O (stereo not given) , TGI: > 100 µM
